Assay system: anti-A020 antibody (Troponin I PET)
Protocol notes: peptide competition assay in 6% BSA
Where no end group is shown, it is not given here.
Measured endpoint: IC50 (nM)
State just the number; it will be interpreted in nM.

Record Ac-NIDALSGMEGRC [A020 peptide (Troponin I), Ac-…] , field IC50: 4
